# targetSystem: human bradykinin 1 receptor (B1R) (Homo sapiens, UniProt P46663)
# Construct: expressed in transfected cells; host or cells: CHO K1 cells
# Sequence (P46663 whole entry): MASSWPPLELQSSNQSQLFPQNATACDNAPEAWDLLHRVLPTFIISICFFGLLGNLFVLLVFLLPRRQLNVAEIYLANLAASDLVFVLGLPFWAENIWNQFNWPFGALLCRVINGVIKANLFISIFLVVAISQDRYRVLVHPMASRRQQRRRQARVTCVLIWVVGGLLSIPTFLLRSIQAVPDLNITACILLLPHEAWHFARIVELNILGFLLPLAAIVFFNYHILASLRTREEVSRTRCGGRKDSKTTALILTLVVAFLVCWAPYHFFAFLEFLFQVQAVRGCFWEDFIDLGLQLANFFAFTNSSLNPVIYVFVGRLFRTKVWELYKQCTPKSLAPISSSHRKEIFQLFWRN
# methodSummary: Functional investigation on the human bradykinin 1 receptor (B1R), Ca2+ FLIPR assay in CHO K1 hB1R cells
# Assay type: cell-based
# appliedConditions: B1R antagonism human; test substance 10 μM; Ca2+ FLIPR, CHO K1 hB1R cells
Values of B1R Ant. h [10 μM] % Inhibition greater than or equal to 50% map to Met; values below map to Not met.

# compound, assignedLabel
measured = [
    ("COc1cc(C)c(S(=O)(=O)N(CCOCC(=O)NCCC2CCC(C(c3cccc(F)c3)N(C)C)CC2)Cc2ccccc2)c(C)c1 (stereo not drawn) [Example 358]", "Met"),
    ("CN(C)C(c1cccc(F)c1)C1CCC(NC(=O)COC2CCCN(S(=O)(=O)c3ccccc3)C2)CC1 (stereo not drawn) [Example 277]", "Not met"),
    ("COc1ccc(S(=O)(=O)N2CCC(OCC(=O)NCC3CCC(C(c4ccc(Cl)cc4)N(C)C)CC3)C2)cc1OC (stereo not drawn) [Example 260]", "Not met"),
    ("COc1cc(C)c(S(=O)(=O)N2CCC(OCC(=O)NCCC3CCC(C(c4ccc(F)cc4)N(C)C)CC3)C2)c(C)c1C (stereo not drawn) [Example 467]", "Met"),
    ("COc1ccc(S(=O)(=O)N(C)CCOCC(=O)NCC2CCC(C(c3ccc(Cl)cc3)N(C)C)CC2)cc1 (stereo not drawn) [Example 324]", "Not met"),
    ("CN(C)C(c1ccc(F)cc1)C1CCC(CNC(=O)COC2CCN(S(=O)(=O)c3ccc(Cl)cc3)C2)CC1 (stereo not drawn) [Example 517]", "Not met"),
    ("CN(C)C(c1ccccc1)C1CCC(CNC(=O)COCCN(C)S(=O)(=O)c2c(Cl)cc(Cl)cc2Cl)CC1 (stereo not drawn) [Example 614]", "Met"),
    ("CN(C)C(c1cccc(F)c1)C1CCC(CCNC(=O)COCC2CCCN2S(=O)(=O)c2ccc(Cl)c(Cl)c2)CC1 (stereo not drawn) [Example 202]", "Not met"),
    ("Cc1ccc(S(=O)(=O)N2CCC(OCC(=O)NCCC3CCC(C(c4ccc(Cl)cc4)N(C)C)CC3)C2)cc1 (stereo not drawn) [Example 305]", "Not met"),
    ("CN(C)C(CCc1ccccc1)C1CCC(CNC(=O)COCCN(C)S(=O)(=O)c2ccc(F)cc2)CC1 (stereo not drawn) [Example 539]", "Not met"),
]

Asked: Please check the record CN(C)C(c1ccc(Cl)cc1)C1CCC(CCNC(=O)COCCN(C)S(=O)(=O)c2ccc(OC(F)(F)F)cc2)CC1 (stereo not drawn) [Example 575] and state if its B1R Ant. h [10 μM] % Inhibition is at or above 50%.
Given back: Not met

Asked: Please check the record CN(C)C(CCc1ccccc1)C1CCC(CNC(=O)COC2CCN(S(=O)(=O)c3ccc(Cl)cc3)C2)CC1 (stereo not drawn) [Example 557] and state if its B1R Ant. h [10 μM] % Inhibition is at or above 50%.
Given back: Not met

Asked: Please check the record COc1cc(C)c(S(=O)(=O)N(CCOCC(=O)NCC2CCC(C(c3ccc(F)cc3)N(C)C)CC2)Cc2ccccc2)c(C)c1 (stereo not drawn) [Example 494] and state if its B1R Ant. h [10 μM] % Inhibition is at or above 50%.
Given back: Met

Asked: Please check the record Cc1cc(C)c(S(=O)(=O)N(C)CCOCC(=O)NC2CCC(C(c3ccccc3)N(C)C)CC2)c(C)c1 (stereo not drawn) [Example 63] and state if its B1R Ant. h [10 μM] % Inhibition is at or above 50%.
Given back: Met

Asked: Please check the record COc1cc(C)c(S(=O)(=O)N(C)CCOCC(=O)NCC2CCC(C(c3ccc(Cl)cc3)N(C)C)CC2)c(C)c1 (stereo not drawn) [Example 348] and state if its B1R Ant. h [10 μM] % Inhibition is at or above 50%.
Given back: Met

###

# targetSystem: bradykinin 1 receptor (B1R) of the rat (Rattus norvegicus, UniProt P97583)
# Construct: expressed in transfected cells; host or cells: CHO K1 cells
# Sequence (P97583 whole entry): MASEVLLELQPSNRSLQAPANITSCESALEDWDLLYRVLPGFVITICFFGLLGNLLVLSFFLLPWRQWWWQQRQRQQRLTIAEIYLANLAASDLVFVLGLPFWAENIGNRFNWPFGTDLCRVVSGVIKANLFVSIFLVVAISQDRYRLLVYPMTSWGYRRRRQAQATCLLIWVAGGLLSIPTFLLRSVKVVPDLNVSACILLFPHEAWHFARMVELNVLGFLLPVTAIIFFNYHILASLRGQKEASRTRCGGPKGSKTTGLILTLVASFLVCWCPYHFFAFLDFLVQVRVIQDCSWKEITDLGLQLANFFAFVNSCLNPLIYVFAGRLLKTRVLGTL
# methodSummary: Functional investigation on the rat bradykinin 1 receptor (B1R), Ca2+ FLIPR assay in CHO K1 rB1R cells
# Format: cell-based
# appliedConditions: CHO-K1, B1R antagonism rat; test substance 10 μM; Ca2+ FLIPR, CHO K1 rB1R cells; read-out: B1R Ant. r [10 μM] % Inhibition
Recorded inhibition at 10 µM by entry
Dear colleague, please return just the value in %, with no unit written.

Please review the following examples before continuing.
# compound, unitsLabel, inhibition at 10 µM
data = [
    ("COc1ccc(S(=O)(=O)N2Cc3ccccc3CC2COCC(=O)NCC2CCC(C(c3cccc(F)c3)N(C)C)CC2)cc1 (stereo not shown) [Example 163]", "%", 36),
    ("CN(C)C(c1cccs1)C1CCC(NC(=O)COCCN(C)S(=O)(=O)c2ccc(Cl)cc2)CC1 (stereo not shown) [Example 83]", "%", 11),
    ("COc1cc(C)c(S(=O)(=O)N2CCC(OCC(=O)NC3CCC(C(CCc4ccccc4)N4CCCCC4)CC3)C2)c(C)c1 (stereo not shown) [Example 669]", "%", 95),
    ("CN(C)C(c1cccc(F)c1)C1CCC(NC(=O)COCCN(C)S(=O)(=O)c2ccc(Cl)cc2)CC1 (stereo not shown) [Example 196]", "%", 27),
    ("O=C(COC1CCCN(S(=O)(=O)c2c(Cl)cc(Cl)cc2Cl)C1)NCC1CCC(C(c2ccccc2)N2CCCC2)CC1 (stereo not shown) [Example 656]", "%", 42),
    ("CN(C)C(c1cccc(F)c1)C1CCC(CCNC(=O)COCCN(C)S(=O)(=O)c2ccc(Cl)cc2)CC1 (stereo not shown) [Example 186]", "%", 35),
]

Asked: Print bradykinin 1 receptor (B1R) of the rat (Rattus norvegicus, UniProt P97583) inhibition at 10 µM for CN(C)C(c1ccccc1)C1CCC(CNC(=O)COC2CCCN(S(=O)(=O)c3c(Cl)cc(Cl)cc3Cl)C2)CC1 (stereo not shown) [Example 621] .
Given back: 0

Asked: Print bradykinin 1 receptor (B1R) of the rat (Rattus norvegicus, UniProt P97583) inhibition at 10 µM for O=C(COCC1CCCN1S(=O)(=O)c1c(Cl)cc(Cl)cc1Cl)NC1CCC(C(c2ccccc2)N2CCOCC2)CC1 (stereo not shown) [Example 698] .
Given back: 86

Asked: Print bradykinin 1 receptor (B1R) of the rat (Rattus norvegicus, UniProt P97583) inhibition at 10 µM for COc1cc(C)c(S(=O)(=O)N2CCCC(COCC(=O)NC3CCC(C(c4ccccc4)N4CCCC4)CC3)C2)c(C)c1 (stereo not shown) [Example 654] .
Given back: 46

Asked: Print bradykinin 1 receptor (B1R) of the rat (Rattus norvegicus, UniProt P97583) inhibition at 10 µM for COc1cc(C)c(S(=O)(=O)N2CCCC(OCC(=O)NCC3CCC(C(CCc4ccccc4)N4CCOCC4)CC3)C2)c(C)c1 (stereo not shown) [Example 748] .
Given back: 78

###

# targetSystem: serotonin (5-HT) reuptake (Rattus norvegicus, UniProt P31652)
# Construct: synaptosomes are freshly isolated from areas of the rat brain; from tissue; host or cells: rat brain synaptosomes (P2 fraction)
# Sequence (P31652 whole entry): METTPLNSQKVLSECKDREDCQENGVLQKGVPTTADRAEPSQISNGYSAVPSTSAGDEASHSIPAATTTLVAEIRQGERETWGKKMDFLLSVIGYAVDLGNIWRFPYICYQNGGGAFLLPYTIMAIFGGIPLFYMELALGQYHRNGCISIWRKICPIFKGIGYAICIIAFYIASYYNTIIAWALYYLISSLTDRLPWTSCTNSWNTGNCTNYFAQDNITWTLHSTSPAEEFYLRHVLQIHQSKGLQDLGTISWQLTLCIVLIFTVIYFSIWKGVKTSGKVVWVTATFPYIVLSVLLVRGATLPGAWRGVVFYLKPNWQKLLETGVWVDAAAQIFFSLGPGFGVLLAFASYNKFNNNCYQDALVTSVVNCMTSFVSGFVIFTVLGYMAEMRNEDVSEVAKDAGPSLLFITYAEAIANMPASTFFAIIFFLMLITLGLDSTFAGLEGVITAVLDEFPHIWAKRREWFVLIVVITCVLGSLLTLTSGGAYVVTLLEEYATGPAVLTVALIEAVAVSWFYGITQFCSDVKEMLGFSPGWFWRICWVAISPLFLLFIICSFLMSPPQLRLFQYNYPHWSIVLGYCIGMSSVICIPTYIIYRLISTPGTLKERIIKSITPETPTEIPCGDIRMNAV
# methodSummary: Inhibition of serotonin (5HT) reuptake in synaptosomes from rat brain
# Assay type: biochemical
# appliedConditions: test concentration of 10 μM
endpointLabel: 5-HT (inhibition of reuptake of serotonin, % inhibition) (%)
Dear colleague, please return just the value in %, with no unit written.

Please review the following examples before continuing.
# compound, unitsLabel, measured
measured = [
    ("CN(C)C(c1ccc(Cl)cc1)C1CCC(CCNC(=O)COC2CCN(S(=O)(=O)c3ccc(F)cc3)C2)CC1 (stereo not shown)", "%", 95),
    ("COc1cc(C)c(S(=O)(=O)N(C)CCOCC(=O)NCCC2CCC(C(c3ccc(F)cc3)N(C)C)CC2)c(C)c1 (stereo not shown)", "%", 89),
    ("COc1ccc(S(=O)(=O)N(C)CCOCC(=O)NCC2CCC(C(c3ccc(F)cc3)N(C)C)CC2)cc1 (stereo not shown)", "%", 80),
]

Asked: State its 5-HT (inhibition of reuptake of serotonin, % inhibition) for this compound: CN(C)C(CCc1ccccc1)C1CCC(NC(=O)COCc2ccccc2)CC1 (stereo not shown)
Given back: 75

Asked: State its 5-HT (inhibition of reuptake of serotonin, % inhibition) for this compound: COc1cc(C)c(S(=O)(=O)N(CCOCC(=O)NCC2CCC(C(c3ccc(F)cc3)N(C)C)CC2)Cc2ccccc2)c(C)c1C (stereo not shown)
Given back: 90

Asked: State its 5-HT (inhibition of reuptake of serotonin, % inhibition) for this compound: CN(C)C(c1cccc(F)c1)C1CCC(CCNC(=O)COC2CCN(S(=O)(=O)c3ccccc3)C2)CC1 (stereo not shown)
Given back: 88

Asked: State its 5-HT (inhibition of reuptake of serotonin, % inhibition) for this compound: CN(C)C(c1cccs1)C1CCC(NC(=O)COCCN(C)S(=O)(=O)c2ccc(OC(F)(F)F)cc2)CC1 (stereo not shown)
Given back: 52

Asked: State its 5-HT (inhibition of reuptake of serotonin, % inhibition) for this compound: COc1cc(C)c(S(=O)(=O)N(CCOCC(=O)NCCC2CCC(C(c3cccc(F)c3)N(C)C)CC2)Cc2ccccc2)c(C)c1C (stereo not shown)
Given back: 88

Asked: State its 5-HT (inhibition of reuptake of serotonin, % inhibition) for this compound: CN(C)C(c1cccs1)C1CCC(CCNC(=O)COC2CCN(S(=O)(=O)c3ccccc3)CC2)CC1 (stereo not shown)
Given back: 94

Asked: State its 5-HT (inhibition of reuptake of serotonin, % inhibition) for this compound: COc1ccc(S(=O)(=O)N2CCCCC2CCOCC(=O)NC2CCC(C(c3ccc(F)cc3)N(C)C)CC2)cc1 (stereo not shown)
Given back: 92

Asked: State its 5-HT (inhibition of reuptake of serotonin, % inhibition) for this compound: CN(C)C(c1ccc(Cl)cc1)C1CCC(CNC(=O)COC2CCN(S(=O)(=O)c3ccccc3)C2)CC1 (stereo not shown)
Given back: 103

Asked: State its 5-HT (inhibition of reuptake of serotonin, % inhibition) for this compound: Cc1ccc(S(=O)(=O)N(C)CCOCC(=O)NC2CCC(C(c3cccc(F)c3)N(C)C)CC2)cc1 (stereo not shown)
Given back: 91

Asked: State its 5-HT (inhibition of reuptake of serotonin, % inhibition) for this compound: COc1ccc(S(=O)(=O)N(C)CCOCC(=O)NC2CCC(C(c3ccc(F)cc3)N(C)C)CC2)cc1OC (stereo not shown)
Given back: 99

Asked: State its 5-HT (inhibition of reuptake of serotonin, % inhibition) for this compound: CN(C)C(c1cccc(F)c1)C1CCC(CNC(=O)COCCN(C)S(=O)(=O)c2ccc(OC(F)(F)F)cc2)CC1 (stereo not shown)
Given back: 83

Asked: State its 5-HT (inhibition of reuptake of serotonin, % inhibition) for this compound: CN(C)C(c1ccccc1)C1CCC(NC(=O)COCc2ccccc2)CC1 (stereo not shown)
Given back: 59

Asked: State its 5-HT (inhibition of reuptake of serotonin, % inhibition) for this compound: COc1ccc(S(=O)(=O)N2CCCCC2COCC(=O)NCCC2CCC(C(c3ccc(F)cc3)N(C)C)CC2)c(OC)c1 (stereo not shown)
Given back: 90

Asked: State its 5-HT (inhibition of reuptake of serotonin, % inhibition) for this compound: COc1ccc(S(=O)(=O)N2CCCC2COCC(=O)NCC2CCC(C(c3cccc(F)c3)N(C)C)CC2)cc1 (stereo not shown)
Given back: 93

Asked: State its 5-HT (inhibition of reuptake of serotonin, % inhibition) for this compound: COc1ccc(S(=O)(=O)N2CCCCC2CCOCC(=O)NCCC2CCC(C(c3ccc(Cl)cc3)N(C)C)CC2)cc1 (stereo not shown)
Given back: 94

Asked: State its 5-HT (inhibition of reuptake of serotonin, % inhibition) for this compound: CN(C)C(c1ccc(F)cc1)C1CCC(CCNC(=O)COCCN(C)S(=O)(=O)c2ccc(Cl)cc2)CC1 (stereo not shown)
Given back: 88

Asked: State its 5-HT (inhibition of reuptake of serotonin, % inhibition) for this compound: COc1cc(C)c(S(=O)(=O)N(CCOCC(=O)NC2CCC(C(c3ccccc3)N(C)C)CC2)Cc2ccccc2)c(C)c1 (stereo not shown)
Given back: 65

Asked: State its 5-HT (inhibition of reuptake of serotonin, % inhibition) for this compound: CN(C)C(c1ccc(F)cc1)C1CCC(CCNC(=O)COC2CCN(S(=O)(=O)c3ccccc3)CC2)CC1 (stereo not shown)
Given back: 94

Asked: State its 5-HT (inhibition of reuptake of serotonin, % inhibition) for this compound: CN(C)C(c1ccccc1)C1CCC(CNC(=O)COC2CCN(S(=O)(=O)c3ccccc3)CC2)CC1 (stereo not shown)
Given back: 94
